A collection of compounds and their measured T/C
- System: P388 leukemia ip, CD2F1 mice, survival T/C
- Assay Explanation: NCI In Vivo Anticancer Drug Screen. Data for tumor model P388 Leukemia (intraperitoneal) in CD2F1 (CDF1) mice
- Experimental Parameters: endpoint: median survival time; dose: 25.0 mg/kg/injection; schedule: Q04DX002 (ip); vehicle: saline with Tween-80; higher = longer survival
Toxic doses and inconclusive results are not listed.

Some solved cases for reference:
CSC(/C=C1\C=CC=CN1Cc1ccccc1)=NC#N | 100 % of control
C=CC(Br)CCCBr (stereo unspecified) | 112 % of control

**Q:** For `O=c1[nH]cc(Br)c2ccccc12` , what is its reported T/C?
**A:** 92 % of control

**Q:** For `CC(=O)Nc1ccc(/C=C\c2ccnc3ccccc23)cc1` , what is its reported T/C?
**A:** 109 % of control

**Q:** For `COc1cc(C[C@H](CO)[C@@H](CO)Cc2ccc3c(c2)OCO3)cc(OC)c1OC` , what is its reported T/C?
**A:** 106 % of control

**Q:** For [Br][Pd][Br].[NH-]C1CCCC2CCC[N-]C12 (stereo unspecified) , what is its reported T/C?
**A:** 93 % of control

* * *

- Test system: P388 leukemia ip, CD2F1 mice, survival T/C
- Assay Explanation: NCI In Vivo Anticancer Drug Screen. Data for tumor model P388 Leukemia (intraperitoneal) in CD2F1 (CDF1) mice
- Experimental Parameters: endpoint: median survival time; dose: 200.0 mg/kg/injection; schedule: Q04DX003 (ip); vehicle: Klucel (hydroxypropylcellulose) (HPC); higher = longer survival
Inconclusive results and toxic doses are left out.
Measured Attribute: T/C

O=C1COCC(=O)OCCOCCOCCO1 | 100 % of control

**Q:** For `Nc1cc2c(cc1C=O)OCO2` , what is its reported T/C?
**A:** 93 % of control

**Q:** For `Cc1ccc(S(=O)(=O)F)c(Cl)c1` , what is its reported T/C?
**A:** 119 % of control

**Q:** For `Cc1ccc(N=Nc2c(O)ccc3n[nH]nc23)cc1` , what is its reported T/C?
**A:** 100 % of control

**Q:** For `Clc1ccccc1CN1COc2c(ccc3ccccc23)C1` , what is its reported T/C?
**A:** 100 % of control

**Q:** For `C[N+](C)(Cc1cccc(Cl)c1)c1nnn[n-]1` , what is its reported T/C?
**A:** 101 % of control

**Q:** For `C[C@]12C=CC(=O)C=C1CC[C@H]1[C@@H]3C[C@@H](O)[C@](O)(C(=O)CO)[C@@]3(C)C[C@H](O)[C@@]12F` , what is its reported T/C?
**A:** 90 % of control

**Q:** For `C/[N+]([O-])=C/c1ccccc1` , what is its reported T/C?
**A:** 106 % of control

**Q:** For CCN(CC)C(=O)OC1c2ccccc2C2CC1c1ccccc1C2O (stereo not given) , what is its reported T/C?
**A:** 102 % of control

* * *

- Test system: P388 leukemia ip, CD2F1 mice, survival T/C
- Assay Explanation: NCI In Vivo Anticancer Drug Screen. Data for tumor model P388 Leukemia (intraperitoneal) in CD2F1 (CDF1) mice
- Experimental Parameters: endpoint: median survival time; dose: 25.0 mg/kg/injection; schedule: Q01DX005 (ip); vehicle: saline; higher = longer survival
Inconclusive results and toxic doses are left out.
Measured Attribute: T/C

CC[N+](C)(CC)C1C(S(=O)(=O)c2ccccc2)CC1(C)C (centres undefined) | 108 % of control

**Q:** For CC12CCC(C=C1N1CCOCC1)C(C)(C)O2 (centres undefined) , what is its reported T/C?
**A:** 100 % of control

**Q:** For `BC(=O)O` , what is its reported T/C?
**A:** 97 % of control

**Q:** For CCC1OC(OC)C=CC1=O (centres undefined) , what is its reported T/C?
**A:** 108 % of control

* * *

- System: P388 leukemia ip, CD2F1 mice, survival T/C
- Assay Explanation: NCI In Vivo Anticancer Drug Screen. Data for tumor model P388 Leukemia (intraperitoneal) in CD2F1 (CDF1) mice
- Experimental Parameters: endpoint: median survival time; dose: 12.5 mg/kg/injection; schedule: Q04DX003 (ip); vehicle: saline
Toxic doses and inconclusive results are not listed. How the source made its calls: active means survival T/C of 150% or more; inactive means T/C below 125% in these data.
Outcome (select one): true (1) for active, false (0) for inactive

These solved cases illustrate the format of a correct answer.
CC1(C)N=C(N)N=C(N)N1c1ccc(OCCOc2ccc(S(=O)(=O)F)cc2)c(Cl)c1 | true (1)
O=C1CNC(=O)N1CCO | false (0)
N=C(N)c1ccc2cc(C(=N)N)[nH]c2c1 | false (0)

Here is the next item to consider.
**Q:** State the result this test recorded for `CCCCCCCC[N+](C)(C)Cc1ccc(Oc2ccc(C[N+](C)(C)CCCCCCCC)cc2)cc1` .
**A:** false (0)

* * *

- Test system: P388 leukemia ip, CD2F1 mice, survival T/C
- Assay Explanation: NCI In Vivo Anticancer Drug Screen. Data for tumor model P388 Leukemia (intraperitoneal) in CD2F1 (CDF1) mice
- Experimental Parameters: endpoint: median survival time; dose: 100.0 mg/kg/injection; schedule: Q01DX009 (ip); vehicle: saline
- Procedure: The antitumor activity of compounds was measured in mice bearing transplantable tumors. Survival or tumor size were measured and the results are expressed as the measurement made in the treated group (T) divided by the measurement made in the vehicle treated control group (C). The tumor model used in this assay is P388 Leukemia (intraperitoneal) in CD2F1 (CDF1) mice
Toxic doses and inconclusive results are not listed. The calls were made as follows: active = survival T/C of 150% or more; inactive = T/C below 125% in these data.
Outcome (select one): YES for active, NO for inactive

ClC(Cl)=Nc1cc(Cl)c(Cl)cc1Cl | NO
COc1ccc(C)cc1NC(=O)/N=C1/NC(=O)CS1 | NO
COC(=O)CS(=O)(=O)CS(=O)(=O)CC(=O)OC | NO

**Q:** State the result this test recorded for `CCc1cccc(CC)c1N1C(=O)c2cccnc2C1=O` .
**A:** NO

* * *

- Tested on: P388 leukemia ip, CD2F1 mice, survival T/C
- Assay Explanation: NCI In Vivo Anticancer Drug Screen. Data for tumor model P388 Leukemia (intraperitoneal) in CD2F1 (CDF1) mice
- Experimental Parameters: endpoint: median survival time; dose: 12.5 mg/kg/injection; schedule: Q01DX009 (ip); vehicle: Klucel (hydroxypropylcellulose) (HPC); higher = longer survival
Inconclusive results and toxic doses are left out.
Measured Attribute: T/C

COCN1C(=O)CN=C(c2ccccc2)c2cc(NO)ccc21 | 105 % of control

**Q:** For CC1OC(C)(C)OC1C(=O)O (stereo unspecified) , what is its reported T/C?
**A:** 92 % of control

**Q:** For O=C1NC(c2cccc(OCc3ccccc3)c2)Nc2ccccc21 (stereo unspecified) , what is its reported T/C?
**A:** 102 % of control

**Q:** For `C1=NC(c2ccccn2)=NNC(c2ccccn2)=C1c1ccccc1` , what is its reported T/C?
**A:** 97 % of control

**Q:** For O=C1C2(Cl)C3(Cl)C4(Cl)C(Cl)(Cl)C5(Cl)[C@]3(Cl)C1(Cl)[C@]5(Cl)C24Cl (stereo partly specified) , what is its reported T/C?
**A:** 110 % of control

**Q:** For C/C=C(/C)C(=O)OC/C(=C/C)C(=O)OC1C=CC(C)(C)C(C=O)=C1C (stereo unspecified) , what is its reported T/C?
**A:** 93 % of control

* * *

- Test system: P388 leukemia ip, CD2F1 mice, survival T/C
- Assay Explanation: NCI In Vivo Anticancer Drug Screen. Data for tumor model P388 Leukemia (intraperitoneal) in CD2F1 (CDF1) mice
- Experimental Parameters: endpoint: median survival time; dose: 200.0 mg/kg/injection; schedule: Q01DX005 (ip); vehicle: saline with Tween-80; higher = longer survival
Toxic doses and inconclusive results are not listed.
Measured Attribute: T/C

O=C(CCc1ccc(O)cc1)c1c(O)cc(O)cc1O | 114 % of control
NCCCCC(C(=O)NCC(=O)O)N(C(=O)OCc1ccccc1)C(=O)OCc1ccccc1 (stereo not given) | 90 % of control
CC1(C)OC2OC3C(CN)OC(c4ccccc4)OC3C2O1 (stereo not given) | 86 % of control

**Q:** For `Nc1nnc2nc(C3(c4nc5nnc(N)n5[nH]c4=O)Cc4ccccc4C3=O)c(=O)[nH]n12` , what is its reported T/C?
**A:** 108 % of control

**Q:** For `O=C(NN1CCCCC1)NN1CCCCC1` , what is its reported T/C?
**A:** 100 % of control

* * *

A collection of compounds and their measured T/C
- Tested on: P388 leukemia ip, CD2F1 mice, survival T/C
- Assay Explanation: NCI In Vivo Anticancer Drug Screen. Data for tumor model P388 Leukemia (intraperitoneal) in CD2F1 (CDF1) mice
- Experimental Parameters: endpoint: median survival time; dose: 50.0 mg/kg/injection; schedule: Q01DX005 (ip); vehicle: Klucel (hydroxypropylcellulose) (HPC); higher = longer survival
Inconclusive results and toxic doses are left out.

**Q:** State its T/C on P388 leukemia ip, CD2F1 mice, survival T/C: `CC(=O)NNC(=O)CCCCCCC(=O)NNC(C)=O`
**A:** 98 % of control
